tested on: MDA-MB-435
Select the matching outcome among T = active, F = inactive

{"Compound smiles": "CCC(=O)c1c(C(F)(F)F)n([O-])c2cc(F)c(F)cc2[n+]1=O", "Assigned label": "T"}
{"Compound smiles": "COc1cc2cc(Oc3ccc(NC(=O)Nc4ccc(Cl)c(Cl)c4)cc3)c(C)nc2cc1OC", "Assigned label": "F"}

Look up the recorded call for COc1ccc(/C(C#N)=C2C=C/C(=N/O)c3ccccc3\2)cc1 in this test.
T

Look up the recorded call for CC(=O)[O][Hg][c]1c(C)c(C)cc(C)c1C in this test.
F

* * *

tested on: CCRF-CEM leukemia; experiment: NCI tumour cell line growth inhibition, 48 h; in the data active = GI50 below about 0.43 µM; inactive = the rest
Select the matching outcome among yes = active, no = inactive

Past entries and their recorded results:
{"Compound": "O=C(CN1C(=O)S/C(=C\\C(Cl)=C\\c2ccccc2)C1=O)NC1C=CS(=O)(=O)C1 (stereo not given)", "Assigned label": "yes"}
{"Compound": "COc1cc2c(=O)[nH]c3cc([N+](=O)[O-])ccc3c2cc1[N+](=O)[O-]", "Assigned label": "no"}

Look up the recorded call for Cc1cc(Cl)nc(N(CCCNc2ccnc3cc(Cl)ccc23)Cc2ccco2)n1 in this test.
no

Look up the recorded call for O=C(CC(Cl)=C(Cl)Cl)c1cccc(Cl)c1Cl in this test.
no

Look up the recorded call for CN1C(=O)C2(c3ccccc31)N(c1ccc(Cl)cc1)C(=O)C2(c1ccccc1)c1ccccc1 (stereo not given) in this test.
no

* * *

system: A549 NSCLC; assay: NCI tumour cell line growth inhibition, 48 h
Attribute: TGI

Study these solved cases before continuing.
{"Compound": "COC(=O)CSSCc1ccc([N+](=O)[O-])cc1", "TGI": "88.8 µM"}
{"Compound": "CCCCCCCCCCCC[n+]1ccc2ccccc2c1", "TGI": "3.38 µM"}
{"Compound": "CC(C)(C)N(Cc1ccc2c(c1)OCO2)C(=O)/C=C\\Sc1ccccc1", "TGI": "> 100 µM"}
{"Compound": "NS(=O)(=O)OCCCCCCCOS(N)(=O)=O", "TGI": "729 µM"}
{"Compound": "Nc1c(Cl)ncnc1NCCCNc1ncnc(Cl)c1N", "TGI": "> 100 µM"}
{"Compound": "C=CCc1cc(OC)c2c(c1)C(OC)CC(c1ccc(OC)c(OC)c1)O2 (stereo not drawn)", "TGI": "> 100 µM"}
{"Compound": "CN(CC(=O)N(Cc1ccc(C2CCCCC2)cc1)c1ccc(C(=O)O)cc1)S(=O)(=O)c1c(F)c(F)c(F)c(F)c1F", "TGI": "21.6 µM"}
{"Compound": "CCN1CCN(C(=O)[C@]23CCC(C)(C)C[C@@H]2C2=CC[C@@H]4[C@@]5(C)C/C(=C/c6ccncc6)C(=O)C(C)(C)[C@@H]5CC[C@@]4(C)[C@]2(C)CC3)CC1", "TGI": "4.65 µM"}

Query: TGI; subject: O=c1cnn(CCOCP(=O)(O)O)c(=O)[nH]1
> 100 µM

Query: TGI; subject: CCc1nc(N)nc(N)c1-c1ccc(N2CCNCC2)cc1
> 100 µM

Query: TGI; subject: S=C(Nc1ccc2cn[nH]c2c1)Nc1ccc2cn[nH]c2c1
> 100 µM

Query: TGI; subject: Cn1nc(-c2ccccc2)c2c(/C=C/c3ccccc3)onc2c1=O
> 100 µM

Query: TGI; subject: CC(C)C1N(C)c2ccc(Cl)cc2[C@H]2c3ccccc3CCN12 (stereo partly drawn)
> 100 µM
